Target or system Prostaglandin G/H synthase 2 (Homo sapiens); recorded quantity IC50.
testReadout: IC50

[[record]]
molecule = "CCCCc1cc(-c2ccccc2)n(-c2ccc(S(C)(=O)=O)cc2)n1"
testreadout = "IC50"
observed = "> 10 µM"

[[record]]
molecule = "CCOC(=O)c1cc(-c2ccccc2)n(-c2ccc(S(C)(=O)=O)cc2)n1"
testreadout = "IC50"
observed = "> 10 µM"

[[record]]
molecule = "CS(=O)(=O)c1ccc(-n2nc(CO)cc2-c2ccccc2)cc1"
testreadout = "IC50"
observed = "10 µM"

[[record]]
molecule = "CC(c1cc2ccccc2s1)N(O)C(N)=O (stereo not given) [ZILEUTON]"
testreadout = "IC50"
observed = "> 10 µM"

[[record]]
molecule = "Cc1cc(-c2ccccc2)n(-c2ccc(S(C)(=O)=O)cc2)n1"
testreadout = "IC50"
observed = "> 10 µM"


Every entry's value here was drawn from ChEMBL document CHEMBL1135226.
